# credit: PubChem BioAssay (NCI)

Give measured GI50 for each item. Keep answers brief.
test system: NCI/ADR-RES ovarian; test: NCI tumour cell line growth inhibition, 48 h

Answer with the recorded GI50 for the compound listed here: OCC1OC(N2C=C(c3nc4ccccc4s3)C3C=CC=CC32)C(O)C(O)C1O (stereo not given)
> 50 µM

Answer with the recorded GI50 for the compound listed here: Cc1cc(-c2nc3sc(C)cn3c2/C=N/N=C(N)N)c(C)s1
14.6 µM

Answer with the recorded GI50 for the compound listed here: CCCCCCCCCCCCCCCCn1cc[n+](C)c1
1.95 µM

Answer with the recorded GI50 for the compound listed here: CCOC(=O)c1c(NN2CCN(CC(F)(F)F)CC2)oc(/C=C2\C=Nc3ncccc32)c1O
19.3 µM

Answer with the recorded GI50 for the compound listed here: CN1CCN(C)C1c1ccc(C2N(C)CCN2C)cc1
90.1 µM

* * *

Give measured GI50 for each item. Keep answers brief.
system: MCF7 breast; assay: NCI tumour cell line growth inhibition, 48 h

Determine reported GI50 for COc1ccc(OC)c(N2CC(O)=C(c3nc4ccccc4s3)C2=N)c1 ; test system: MCF7 breast.
60.8 µM

Determine reported GI50 for COc1cc2c3c(n(CCCN=[N+]=[N-])c(=O)c2cc1OC)-c1ccc(F)cc1C3=O ; test system: MCF7 breast.
3.78 µM

Determine reported GI50 for COC(=O)[C@H](Cc1cn(C)cn1)NC(=O)[C@H](CC(C)C)NC(=O)Nc1cc(C(F)(F)F)cc(C(F)(F)F)c1 ; test system: MCF7 breast.
2.52 µM

Determine reported GI50 for CC(C)CCN(CCC(C)C)CC(=O)Nc1ccc(S(=O)(=O)c2ccc(NC(=O)CN(CCC(C)C)CCC(C)C)cc2)cc1 ; test system: MCF7 breast.
1.31 µM

Determine reported GI50 for Cc1nnn(C)c1-c1cnc2c3ccc(C(C)(C)O)cc3n([C@H](c3ccccc3)C3CCOCC3)c2c1 ; test system: MCF7 breast.
< 0.01 µM

Determine reported GI50 for Cc1cccc2c(=O)c3c(sc12)c(NCCCNCCO)nc1ccccc13 ; test system: MCF7 breast.
1.33 µM

* * *

system: SF-539 CNS; assay: NCI tumour cell line growth inhibition, 48 h
Give measured GI50 for each item. Keep answers brief.

Answer with the recorded GI50 for the compound listed here: COc1cc(OC)c(C(=O)/C=C/c2ccc(C#N)cc2)c(OC)c1
1280 nM

Answer with the recorded GI50 for the compound listed here: CC[C@@]1(O)CC(OC2CC(N3CCOCC3)C(O)C(C)O2)c2c(O)c3c(c(O)c2[C@H]1O)C(=O)c1cccc(O)c1C3=O (stereo partly drawn)
23.3 nM

Answer with the recorded GI50 for the compound listed here: Cc1ncc(C(=O)Nc2ccc(CN3CCN(C)CC3)c(C(F)(F)F)c2)cc1C#Cc1cnc(N)c2ccc(C#N)cc12
79.6 nM

Answer with the recorded GI50 for the compound listed here: O=C(Nc1ccc(I)cc1F)c1cc(Br)ccc1O
583 nM

Answer with the recorded GI50 for the compound listed here: O=C(Nc1ccc(Cl)c(C(F)(F)F)c1)Nc1ccc(-c2cccnc2)cc1N1CCC(CO)CC1
2290 nM

Answer with the recorded GI50 for the compound listed here: CCOc1ccccc1/C=N\N=C(N/N=C/c1ccccc1OCC)N/N=C/c1ccccc1OCC
2410 nM

Answer with the recorded GI50 for the compound listed here: CCc1cc2c(c(OCC(F)(F)F)c(C(=O)NC3CCN(C(=O)CO)CC3)n2C)c(=O)n1CC(=O)c1ccccc1
36500 nM

Answer with the recorded GI50 for the compound listed here: CCOC(=O)c1ccc(N2NC(=O)/C(=C/c3ccc([N+](=O)[O-])o3)C2=O)cc1
18800 nM

Answer with the recorded GI50 for the compound listed here: COc1ccc(C(=O)/C=C/c2cc(-c3ccc(OC)c(OC)c3)n[nH]2)cc1OC
525 nM

Answer with the recorded GI50 for the compound listed here: CCCCCSc1ccc2nc(NC(=O)OCC)sc2c1
400 nM

Answer with the recorded GI50 for the compound listed here: COc1ccc(Sc2[nH]c(C=O)c3ccccc23)cc1
10900 nM

Answer with the recorded GI50 for the compound listed here: COc1cccc(S(=O)(=O)NC2=NCCN2C(=S)SN2CCn3c2nsc3=S)c1
27300 nM

Answer with the recorded GI50 for the compound listed here: COc1cc2c(cc1OC)[C@@H]1C(=O)c3ccc4c(c3O[C@@H]1CO2)C[C@H](C(C)C)O4
15000 nM

Answer with the recorded GI50 for the compound listed here: O=S(O)O.O=S(O)O.[Co].[NH2-].[NH2-].[NH2-].[NH2-]
> 100000 nM

Answer with the recorded GI50 for the compound listed here: ClCc1ccccc1Cn1cnc2nc(Cl)nc(Cl)c21
639 nM

Answer with the recorded GI50 for the compound listed here: COc1cc2c(/C=C3\C(=O)N(C)c4ccccc43)c[nH]c2cc1C
4200 nM

Answer with the recorded GI50 for the compound listed here: CN1CCN(C)C1c1ccc(C2N(C)CCN2C)cc1
35600 nM

Answer with the recorded GI50 for the compound listed here: CCCCCCCCCCCCCCCCn1cc[n+](C)c1
1160 nM

* * *

system: HOP-62 NSCLC; assay: NCI tumour cell line growth inhibition, 48 h
assay.readout: TGI

Answer with the recorded TGI for the compound listed here: CCCCCCOC(=O)CC1=C(C)/C(=C/c2[nH]c(-c3ccc[nH]3)cc2OC)N=C1C
1.15 µM

Answer with the recorded TGI for the compound listed here: COc1ccc(O)c(/C=N\Nc2ccccc2)c1
> 100 µM

Answer with the recorded TGI for the compound listed here: C=CCCn1nc(-c2ccccc2)oc1=O
> 100 µM

Answer with the recorded TGI for the compound listed here: C=C(CN(C)C)C(=O)c1ccccc1OC
> 100 µM

Answer with the recorded TGI for the compound listed here: OCc1ccc(-c2nc(-c3ccc4c(c3)OCO4)c(-c3ccccn3)[nH]2)cc1
> 25 µM

Answer with the recorded TGI for the compound listed here: CC(=O)Nc1ccc(S(=O)(=O)c2nnc(NC(C)=O)s2)cc1
> 100 µM

Answer with the recorded TGI for the compound listed here: S=C(NCCc1ccccn1)N/N=C(\c1ccccc1)c1ccccn1
> 50.1 µM

Answer with the recorded TGI for the compound listed here: O=S(O)O.O=S(O)O.[Co].[NH2-].[NH2-].[NH2-].[NH2-]
> 100 µM

Answer with the recorded TGI for the compound listed here: Cc1cc(N(CCC#N)CCC#N)ccc1/C=C1N=C(/C=C\c2ccccc2)N(NC(=O)CC(=O)Nc2ccccc2Cl)C\1=O
> 100 µM

Answer with the recorded TGI for the compound listed here: COC(=O)CN(CC(=O)NCCNC(=O)OC(C)(C)C)C1CCCCC1N(CC(=O)OC)CC(=O)OC (stereo unspecified)
> 100 µM

Answer with the recorded TGI for the compound listed here: CC1(C)C(=O)/C=C\C(=O)C(C)(C)C2=CC=C(O2)C(C)(C)C(=O)C(Br)C(Br)C(=O)C(C)(C)C2=CC=C1O2 (stereo unspecified)
> 100 µM

Answer with the recorded TGI for the compound listed here: COC(=O)c1c2c(c(C)[n+]([O-])c1C)C(=O)C(NCc1ccccc1)=CC2=O
17.9 µM

Answer with the recorded TGI for the compound listed here: NC(=O)N/N=C\CC(O)(C(F)(F)Cl)C(F)(F)Cl
> 10 µM

Answer with the recorded TGI for the compound listed here: COc1cc(CSc2nc3ccc(Cl)cc3c(=O)n2Cc2ccccc2)cc(OC)c1OC
18.2 µM

Answer with the recorded TGI for the compound listed here: CCC1C(NC(=O)OC)C(=O)N1[C@@H](C)c1ccccc1 (stereo partly specified)
> 100 µM

Answer with the recorded TGI for the compound listed here: Cc1nnn(C)c1-c1cnc2c3ccc(C(C)(C)O)cc3n([C@H](c3ccccc3)C3CCOCC3)c2c1
> 46.9 µM

Answer with the recorded TGI for the compound listed here: Cc1cc(-c2nc3sc(C)cn3c2/C=N/N=C(N)N)c(C)s1
8.64 µM

Answer with the recorded TGI for the compound listed here: COc1cc2c3c(n(CCCN=[N+]=[N-])c(=O)c2cc1OC)-c1ccc(F)cc1C3=O
> 100 µM

Answer with the recorded TGI for the compound listed here: CN1CCc2ccccc2C1Cc1ccccc1NC(=O)c1sc2ccccc2c1Cl (stereo unspecified)
> 100 µM

Answer with the recorded TGI for the compound listed here: Cc1cccc2c(=O)c3c(sc12)c(NCCCNCCO)nc1ccccc13
2.75 µM

Answer with the recorded TGI for the compound listed here: O=C1CN=C(c2ccc[nH]2)c2cc(Cl)ccc2N1
> 100 µM

Answer with the recorded TGI for the compound listed here: CCCCCCCCCCC/C=C(/C(=O)CCCO[Si](C)(C)C(C)(C)C)C(=O)OC
> 100 µM

Answer with the recorded TGI for the compound listed here: CCNCC(=O)Nc1ccc2c(c1)C(=O)c1ccc(NC(=O)CNCC)cc1C2=O
20 µM

Answer with the recorded TGI for the compound listed here: COc1c(Sc2c(SCSc3cnc4ccccc4c3Sc3cnc4ccccc4c3OC)cnc3ccccc23)cnc2ccccc12
> 100 µM

Answer with the recorded TGI for the compound listed here: COC(=O)CCc1n(Cc2ccc3ccccc3c2)c2ccccc2[n+]1Cc1ccc2ccccc2c1
3.46 µM

Answer with the recorded TGI for the compound listed here: CCOc1ccc(N(CC(=O)N2CC(=O)Nc3cc(C)c(C)cc32)C(C)=O)cc1
> 100 µM

Answer with the recorded TGI for the compound listed here: Cc1nc2ccccc2c(=O)n1/N=C(\N=Nc1ccccc1)c1ccccc1Cl
> 100 µM

Answer with the recorded TGI for the compound listed here: O=C1OC(c2ccc(O)cc2)(c2ccc(O)cc2)c2ccc(Cl)c3cccc1c23 (tested in a mixture with another compound)
16.2 µM

Answer with the recorded TGI for the compound listed here: COc1cc(OC)c(C(=O)/C=C/c2ccc(C#N)cc2)c(OC)c1
4.24 µM

Answer with the recorded TGI for the compound listed here: CCOC(=O)C1CC(=O)C=C2CCCCC21 (stereo unspecified)
> 100 µM

Answer with the recorded TGI for the compound listed here: O=C(/C=C/c1ccc([N+](=O)[O-])cc1)N1CCN(CCOC(c2ccc(F)cc2)c2ccc(F)cc2)CC1
> 100 µM

Answer with the recorded TGI for the compound listed here: CC(=O)NC(CCCCNCc1ccccc1)C(=O)NCc1ccccc1 (stereo unspecified)
> 100 µM

Answer with the recorded TGI for the compound listed here: Cc1cccc2c(N)c3cccc(C(=O)NCC[N+](C)(C)Cc4ccccc4[N+](=O)[O-])c3nc12
> 41.4 µM

Answer with the recorded TGI for the compound listed here: O=C(Nc1ccc(I)cc1F)c1cc(Br)ccc1O
7.04 µM

Answer with the recorded TGI for the compound listed here: N#Cc1c(N)nc2c(c1-c1ccc(Cl)cc1)COc1ccc(F)cc1-2
75.2 µM

Answer with the recorded TGI for the compound listed here: Cn1c(-c2ccccc2)cc(-c2ccc3c(c2)OCO3)c1-c1ccsc1
> 100 µM

Answer with the recorded TGI for the compound listed here: CCCCCCCCCCCCc1ccc(S(=O)(=O)O)cc1.[Cu+2]
> 100 µM

Answer with the recorded TGI for the compound listed here: COCN1C(=O)[C@@H]2C[C@@H](O)CN2C(=O)c2ccccc21
> 100 µM

Answer with the recorded TGI for the compound listed here: COc1cccc(C2=NC(C(C)C)CO2)c1OC (stereo unspecified)
> 100 µM

Answer with the recorded TGI for the compound listed here: COc1ccc(C)c2sc(N(Cc3cccnc3)C(=O)c3ccc(C#N)cc3)nc12
> 100 µM

Answer with the recorded TGI for the compound listed here: COC(=O)[C@H](Cc1cn(C)cn1)NC(=O)[C@H](CC(C)C)NC(=O)Nc1cc(C(F)(F)F)cc(C(F)(F)F)c1
> 10 µM
